# Protocol summary: Inhibition of Mycobacterium tuberculosis cytochrome bd oxidase over expressed in inverted membrane vesicles of Mycobacterium smegmatis mc2155 deltacydAB assessed as reduction in malate-induced increase in oxygen consumption rate measured at 120 secs in presence of cytochrome bcc-aa3 complex inhibitor TB47 by fluorespirometry
# Assay type: cell membranes, Membrane vesicle
Parameter measured: pIC50
By convention, pIC50 is the negative base-10 log of a molar concentration.

Task item: Please indicate pIC50 recorded for `CC(C)=CCC/C(C)=C/CC/C(C)=C/Cc1c(C)[nH]c2ccccc2c1=O`
Reply: 6.82

----------
# Protocol summary: Inhibition of Mycobacterium tuberculosis cytochrome bd oxidase over expressed in inverted membrane vesicles of Mycobacterium smegmatis deltacydAB assessed as reduction in malate-induced increase in oxygen consumption rate measured after 60 secs in presence of cytochrome bcc-aa3 complex inhibitor TB47 by fluorespirometry
# Assay type: cell membranes, Membrane vesicle
# IC50 values compiled below
Report only the number, with the unit µM understood.

CC(C)=CCC/C(C)=C/CC/C(C)=C/Cc1c(C)[nH]c2ccc(O)cc2c1=O : 0.59
CC(C)=CCC/C(C)=C/Cc1c(C)[nH]c2ccc(N)cc2c1=O : 33
CC(C)=CCC/C(C)=C/CC/C(C)=C/Cc1c(C)[nH]c2cc(N)ccc2c1=O : 1.8
CC(C)=CCc1c(C)[nH]c2ccccc2c1=O : 5.8

Now, please, on to the next compound.
Task item: Using known records, supply IC50 for `Cc1[nH]c2ccccc2c(=O)c1Cc1ccccc1`
Reply: 4.8

All values here come from ChEMBL document CHEMBL5126646.
